Data provenance: the OPERA property sets (Mansouri et al. 2018)

Where a SMILES comes first, the peptide text is derived from it.
observed-property: logP

Please review the entries below; each comes with its answer.
[[record]]
compound = "CCOc1cc2ncnc(Nc3cc(F)cc(C(F)(F)F)c3)c2cc1OCC"
observed_property = "logP"
result = 5.49

[[record]]
compound = "CCOC(=O)C1=C(C)NC(C)=C(C(=O)OC)C1c1cccc2c1OCCO2 (configuration not stated)"
observed_property = "logP"
result = 3.57

[[record]]
compound = "COc1ccc(CNc2[nH]cnc3ncnc2-3)cc1"
observed_property = "logP"
result = 2.17

[[record]]
compound = "CCC(C)C(N)C(=O)NC(C)C(=O)NCC(=O)NC(Cc1ccccc1)C(=O)O (configuration not stated) (H-IAGF-OH; configuration not given here)"
observed_property = "logP"
result = -1.78

[[record]]
compound = "CCCNC(=O)Cn1cccc(O)c1=O"
observed_property = "logP"
result = -0.24

[[record]]
compound = "Nc1nc(Cl)nc2c1ncn2[C@H]1C[C@H](O)[C@@H](CO)O1"
observed_property = "logP"
result = 0.02

[[record]]
compound = "Clc1ccccc1N1CCN(CCn2nnc3ccccc32)CC1"
observed_property = "logP"
result = 3.35

[[record]]
compound = "CNC(C)Cc1ccc(N)cc1 (configuration not stated)"
observed_property = "logP"
result = 0.81


Field logP (entry CC(Cl)C(=O)Nc1ccc(C2=NNC(=O)CC2C)cc1 (configuration not stated) ) reads 1.4

Field logP (entry CCC1CC2C3CCC4=CC(=O)CCC4C3CCC2(C)C1C(=O)CO (configuration not stated) ) reads 4.01

Field logP (entry CC(SSc1ncc[nH]1)c1ccccc1 (configuration not stated) ) reads 3.39
